Listed here are variants together with their documented self-cleavage.
B1: HDV Ribozyme (parent)
chain: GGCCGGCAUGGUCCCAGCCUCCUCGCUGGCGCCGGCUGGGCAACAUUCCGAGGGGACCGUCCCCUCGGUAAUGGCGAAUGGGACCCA

# Variants of: B1
# measurement protocol: self-cleavage, relative activity (ratio to wild type); higher = more cleavage; co-transcriptional
measured endpoint: self-cleavage

variant identifier	experimental value
G25U C75G	0.128
G1U C75G	0.162
C58A G68C	1.03
C41A A78U	0.354
A8C C30A	0.0462

FYI, the data here is from the RNAGym collection of RNA variant scans (doi:10.7554/elife.80360).
